# credit: patent US20120165319A1

- test: Pharmacokinetic studies in the mouse (i.v. clearance, plasma levels)
- Type: in vivo
- experimental.context: CD-1, plasma, iv; mouse, 25 mg/kg
Assignment: determine reported clearance for the given compounds.
Respond numerically; units are mL/min/kg and should not be typed.

# input // query clearance value for entry O=C[C@H](CC(=O)O)NC(=O)[C@@H]1CCCN2C(=O)CC[C@H](NC(=O)c3ccc4c(c3)OCO4)C(=O)N12
# output 26

# input // query clearance value for entry CC(=O)Nc1ccc(C(=O)N[C@H]2CCC(=O)N3CCC[C@@H](C(=O)N[C@H](C=O)CC(=O)O)N3C2=O)cc1
# output 13

----------
- Tested on: IL-1β, human peripheral blood mononuclear cells (PBMC)
- test: PBMC cell assay: IL-1β assay with human PBMC or enriched adherent mononuclear cells, LPS-stimulated
- Type: cell-based
- experimental.context: Homo sapiens, PBMC, * = values obtained upon reassay
Where a name gives a salt, the structure may show the parent alone.
assay.endpoint: IC50

# input // query IC50 value for entry O=CC(CC(=O)O)NC(=O)CN1C(=O)[C@@H](NCc2ccccc2)CN(C(=O)CCc2ccccc2)c2ccccc21 (stereo partly shown) [Compound 605v, trifluoroacetic acid salt]
# output > 30 µM

# input // query IC50 value for entry CC(=O)Nc1ccccc1C(=O)N[C@H]1CCC(=O)N2CCC[C@@H](C(=O)N[C@H](C=O)CC(=O)O)N2C1=O
# output > 8 µM

# input // query IC50 value for entry CC(C)OC(=O)C[C@H](NC(=O)[C@@H]1CCCN2C(=O)CC[C@H](NC(=O)c3ccccc3)C(=O)N12)C(OC(C)C)OC(C)C [Compound 2100d]
# output > 20 µM

# input // query IC50 value for entry O=C(O)C[C@H](NC(=O)CN1C(=O)[C@@H](NC(=O)CCc2ccccc2)CN(C(=O)CCc2ccccc2)c2ccccc21)C(=O)c1nc2cc(Cl)cc(Cl)c2o1 [Compound 609a]
# output > 30 µM
